# Test system: HOP-62 NSCLC
# test: NCI-60 one-dose screen, 48 h
# assay.context: 10 µM unless noted
This is part of a sample that, as a whole, favours compounds with a hit. Of some 83,000 tested, about 20% had one in any assay. Activity calls are given as the source filed them. How the source made its calls: active means growth percent below 10; inactive means the rest.
A correct response names exactly one class from active, inactive

# count of solved cases: 4
compound | assigned.category
O=C(C(=O)N1CCOCC1)c1cn(CCCn2cc(C(=O)C(=O)N3CCOCC3)c3ccccc32)c2ccccc12 | inactive
Cc1ccc(N/N=C(/C(=O)c2ccc(Cl)cc2)c2nc(C)cc(=O)[nH]2)cc1 | inactive
Nc1nc(Nc2ccccc2SSc2ccccc2Nc2nc(N)nc(-c3cccc(Cl)c3)n2)nc(-c2cccc(Cl)c2)n1 | active
O=C(NN1C(=O)c2cc(C(=O)O)c(C(=O)O)cc2C1=O)c1ccncc1 | inactive

query: What outcome does the record of this test show for "COc1cccc(/C=N/Nc2nc3ccccc3s2)c1OC" ?
result: inactive

query: And then O=C(CC(C(=O)c1ccccc1)N1CCN(Cc2ccccc2)CC1)c1ccccc1 (centres undefined) , what is it?
result: inactive

query: Another compound to look at: COc1ccc(C2=NN(C=O)C(c3cccc(Nc4ccnc5cc(Cl)ccc45)c3)C2)cc1 (centres undefined)
result: inactive

query: And then "COc1ccc2[nH]c(=O)c(CNc3ccc(Nc4nccc(-c5ccc(Cl)cc5)n4)cc3)cc2c1" , what is it?
result: inactive

query: Moving on to "[N-]=[N+]=NCc1ncc(-c2ccc(C(F)(F)F)cc2)c(NC2CCCCCC2)n1"
result: inactive

---

# System: HS 578T breast
# test: NCI-60 one-dose screen, 48 h
# assay.context: 10 µM unless noted
The panel holds about 83,000 compounds, 20% with a hit somewhere; the sample as a whole holds those more often. Activity calls are given as the source filed them. How the source made its calls: active means growth percent below 10; inactive means the rest.
Pick one: Yes for active, No for inactive

compound | assigned.category
O=C1c2cccc(NCCN=Cc3ccccc3O)c2C(=O)c2c(NCCN=Cc3ccccc3O)cccc21 | Yes
N#Cc1c(-c2ccccc2)cc(-c2ccccc2)n(CCC(=O)O)c1=O | No
CCN(CC)CCOCC[C@H]1CC[C@H]2[C@@H]3[C@H](C)Cc4cc(OS(N)(=O)=O)ccc4[C@H]3CC[C@]12C | Yes
Nc1ccc(N=Nc2ccccc2)cc1[N+](=O)[O-] | No

query: Test call, this compound: "COc1ccc2c(c1)[n+](=O)c(C(=O)/C=C/c1cc(OC)c(OC)c(OC)c1)c(C)n2[O-]"
result: No

query: And for "Cc1onc(-c2ccccc2Cl)c1C(=O)N[C@@H]1C(=O)N2[C@@H]1SC(C)(C)[C@@H]2C(=O)O" ?
result: No

query: Now try "c1ccc(-c2oc(-c3ccccc3)c3ccccc23)cc1" .
result: No

---

# Tested on: SK-OV-3 ovarian
# test: NCI-60 one-dose screen, 48 h (100 = growth as untreated, 0 = no growth, -100 = all killed)
# assay.context: 10 µM unless noted
Compounds without any hit were thinned out: in the full panel of roughly 83,000, 20% have a hit.
# Lookup of reported growth keyed by entry
Please state the figure in %; there is no need to write the unit.

Examples with answers:
molecule | test.system | growth (%)
COc1ccc(CNC(=O)c2c(C)n([O-])c3cc(F)c(F)cc3[n+]2=O)cc1 | SK-OV-3 ovarian | 111
COC(=O)C1(NC(=O)CNC(=O)OCc2ccccc2)CCCC1 | SK-OV-3 ovarian | 111
COc1ccc(C2CC(c3ccc4c(c3)OCO4)=NN2C=O)cc1 (stereo unspecified) | SK-OV-3 ovarian | 108

query: What value of growth has been recorded for this entry: "COc1ccc2cc(-c3nc4ccccc4[nH]3)c(=O)oc2c1"
result: 104

query: Again, but for "CC(=O)c1nn(-c2ccccc2)c(=Nc2ccccc2)cc1C"
result: 108

query: Follow-up entry: "O=C(Nc1ccccc1OC(=O)c1ccccc1)c1ccccc1"
result: 89.2

---

# Test system: SF-295 CNS
# test: NCI-60 one-dose screen, 48 h (100 = growth as untreated, 0 = no growth, -100 = all killed)
# assay.context: 10 µM unless noted
About 83,000 compounds went through this panel and 20% of them were active in at least one assay; those are over-represented in the sample as a whole.
Label met when growth < 30%; otherwise not met.

Recorded results for 6 compounds are shown here.
compound | assigned.category
CC(C)=CCNc1ncnc2c1ncn2C1OC(COP(=O)(O)O)C(O)C1O (centres undefined) | met
N#Cc1c(NC(=O)c2ccco2)[n+]([O-])c2ccccc2[n+]1[O-] | not met
Cc1cc(C)c2c(N)c3cccc(C)c3nc2n1 | met
O=C(C(=O)N1CCOCC1)c1cn(CCCn2cc(C(=O)C(=O)N3CCOCC3)c3ccccc32)c2ccccc12 | not met
Cc1onc(-c2ccccc2Cl)c1C(=O)N[C@@H]1C(=O)N2[C@@H]1SC(C)(C)[C@@H]2C(=O)O | not met
C[C@]12CCC(=O)C=C1CCC1C2[C@@H](O)C[C@@]2(C)C1CC[C@]2(O)C(=O)COC(=O)CCC(=O)O (some centres undefined) | not met

query: Is the reported growth for "CCNCCCn1c2c(c3ccc(F)cc3c1=O)C(=O)c1cc(OC)cnc1-2" strictly below 30%?
result: met

query: Please do the same for "c1ccc(Nc2ccc(Nc3nc(-c4ccccc4)nc4ccccc34)cc2)cc1" as well.
result: not met

query: Here is the next compound: "CN(C)CCCN=c1cc2c(=O)n(CCCN(C)C)c(=O)c3c(NCCCN(C)C)cc4c(O)n(CCCN(C)C)c(=O)c1c4c3-2"
result: met

---

# Tested on: NCI-H522 lung
# test: NCI-60 one-dose screen, 48 h (100 = growth as untreated, 0 = no growth, -100 = all killed)
# assay.context: 10 µM
About 83,000 compounds went through this panel and 20% of them were active in at least one assay; those are over-represented in the sample as a whole.
measurement.kind: growth (%)
# unit: % | format: bare number

Please review the entries below; each comes with its answer.
compound | growth, %
CC[n+]1c(/C=C/c2ccc(N3CCCC3)cc2)cccc1/C=C/c1ccc(N2CCCC2)cc1 | -83.2
CC1c2ccccc2-c2ccccc2N1C (centres undefined) | 87.5
Cc1cc(Cl)ccc1Nc1nc(C(F)(F)F)ccc1C(=O)N/N=C/c1ccc(Cl)cc1 | -17.6

Moving on to the next compound.
query: Record request: growth value, item "CC(C)Sc1nc(Cl)c(C#N)c(-c2ccc(F)cc2)n1"
result: 86.8

---

# Tested on: MOLT-4 leukemia
# test: NCI-60 one-dose screen, 48 h
# assay.context: 10 µM unless noted
The panel holds about 83,000 compounds, 20% with a hit somewhere; the sample as a whole holds those more often. The source made the active and inactive calls. Rule for the calls: active = growth percent below 10; inactive = the rest.
Your answer must be one of the following: 1 for active, -1 for inactive

Some solved cases for reference:
compound | assigned.category
COc1cccc(/C=C2\Cc3ccccc3C2=O)c1 | -1
CC1CN(C2CCCCC2)C(=O)NC1=O (stereo not given) | -1

query: Test call for this compound, please: "Cc1csc(C#Cc2cncc(O)c2)n1"
result: -1

query: Another compound to look at: "CN1CCN(CCCOc2ccc3ncnc(Nc4ccc(OCc5cccc(F)c5)c(Cl)c4)c3c2)CC1"
result: 1

query: What do you get for "C/C(=C\CCc1ccoc1)CC/C=C(\C)CCCN1CCOCC1" ?
result: -1

query: Okay, and COc1ccc(C2CC(c3ccc4c(c3)OCO4)=NN2C=O)cc1 (stereo not given) ?
result: -1

---

# Test system: MOLT-4 leukemia
# test: NCI-60 one-dose screen, 48 h (100 = growth as untreated, 0 = no growth, -100 = all killed)
# assay.context: 10 µM unless noted
Compounds without any hit were thinned out: in the full panel of roughly 83,000, 20% have a hit. The source made the active and inactive calls. Rule for the calls: active = growth percent below 10; inactive = the rest.
Catalogue of growth values

molecule | test.system | growth
COc1cc(/C=C/c2cc(/C=C/c3ccc(O)c(OC)c3)n(C(=O)Cc3ccccc3)n2)ccc1O | MOLT-4 leukemia | 1.08% (active)
c1ccc(COc2ccc(Nc3ncnc4c3cnn4-c3ccccc3)cc2)cc1 | MOLT-4 leukemia | 93.1% (inactive)

Now look at this one.
query: Which measured growth value corresponds to CC1c2ccccc2-c2ccccc2N1C (stereo not given) ?
result: 103% (inactive)

---

# Test system: 786-0 renal
# test: NCI-60 one-dose screen, 48 h (100 = growth as untreated, 0 = no growth, -100 = all killed)
# assay.context: 10 µM unless noted
# Experimental: Cells are grown in 96 well plates and exposed to the test compound for 48 hours. Compounds are tested at a single concentration, which is 10^-5 M for most compounds. The reported endpoint is percent growth (GI% or GIPRCNT), where numbers from 0 - 100% represent growth inhibition, and numbers from -100% - 0 represent cell death. For example, a value of 40 represents 60% growth inhibition. A value of 0 means no net growth occurred over the course of the experiment. […]
About 83,000 compounds went through this panel and 20% of them were active in at least one assay; those are over-represented in the sample as a whole. Calls of active or inactive are those of the source. Rule for the calls: active = growth percent below 10; inactive = the rest.
measurement.kind: growth

compound | growth
O=C(NCCNC(=O)Oc1cccc2ccccc12)Oc1cccc2ccccc12 | 106% (inactive)
COc1ccc2cc(C3=CC(=O)CCC3)ccc2c1 | 90.5% (inactive)
O=C(/C=C/c1c(-c2ccccc2)[nH]c2ccccc12)S(=O)(=O)c1ccccc1 | 74.4% (inactive)
CC(C)Cn1cnc2c(NCn3nc(-c4cc(Cl)cc(Cl)c4Cl)n(/N=C/c4ccc(Cl)cc4)c3=S)nc3ccccc3c21 | 90.7% (inactive)
COc1cc(C2CC(c3ccc(C)cc3)=NN2C=O)ccc1OCCN(C)C (centres undefined) | 101% (inactive)
COc1ccc(C2=NN(C(N)=S)C(c3ccc4c(c3)OCO4)C2)cc1 (centres undefined) | 30.6% (inactive)
O=C1NC(=O)/C(=C/c2ccc(Cl)cc2Cl)N1 | 109% (inactive)
COC(=O)Nc1ccc2ccc3c(NC(=O)OC)ccc4ccc1c2c43 (tested in a mixture with another compound) | 60% (inactive)

query: I am curious: what growth value has been reported for "c1ccc(CN=C(NCc2ccccc2)NCc2ccccc2)cc1" ?
result: 73.1% (inactive)

query: Request: "COc1ccc(CNC(=O)c2c(C)n([O-])c3ccc(OC)cc3[n+]2=O)cc1"
result: 96% (inactive)
